- measurementNotes: in vivo
- Design: species or system SD rats
- studyConditions: male, SD, rat, iv, 1 mg/kg, pulmonary concentration (nM)
assayReadout: concentration at 6 h (nM)

chemSmiles	unitAnnotation	valueMeasured
CCNC(=O)c1onc(-c2cc(C(C)C)c(O)cc2O)c1-c1ccc2c(c1)CCNC2	nM	1530
CC(C)c1cc(-c2n[nH]c(=O)n2-c2ccc3c(ccn3C)c2)c(O)cc1O	nM	101
CCNC(=O)c1noc(-c2cc(C(C)C)c(O)cc2O)c1-c1ccc(CN2CCOCC2)cc1	nM	257

###

- studyTarget: HSP90α (Homo sapiens (Human))
- measurementNotes: Fluorescence polarization (FP) HSP90-alpha target binding assay
- studyConditions: fluorescence polarization; read-out: Target binding ability HSP90α FP IC50
assayReadout: IC50

molecule	valueMeasured
CCNC(=O)c1noc(-c2cc(C(C)C)c(O)cc2O)c1-c1ccc2c(c1)CCCN(C)C2	< 0.02 µM
CCNC(=O)c1noc(-c2cc(C(C)C)c(O)cc2O)c1-c1cc2n(c1)CCN(C)C2	< 0.02 µM
CCNC(=O)c1noc(-c2cc(C(C)C)c(O)cc2O)c1-c1ccc2c(c1)N(C)CCC2	0.02 to 0.1 µM
CCNC(=O)c1noc(-c2cc(C(C)C)c(O)cc2O)c1-c1ccc2c(c1)CCN(C(=O)CCN(C)C)C2	0.02 to 0.1 µM
CC(C)c1cc(-c2onc(C(O)C(F)(F)F)c2-c2ccc3c(c2)CCN(C)C3)c(O)cc1O (stereo not shown)	0.02 to 0.1 µM
COCCNC(=O)c1noc(-c2cc(C(C)C)c(O)cc2O)c1-c1ccc2c(c1)CCN(C)C2	< 0.02 µM
CCNC(=O)c1noc(-c2cc(C(C)C)c(O)cc2O)c1-c1cc2c(s1)CCN(C)C2	0.02 to 0.1 µM
CC(C)c1cc(-c2noc(C(=O)NCCF)c2-c2ccc3c(c2)CCN(C)C3)c(O)cc1O	< 0.02 µM
CCNC(=O)c1noc(-c2cc(C(C)C)c(O)cc2O)c1-c1ccc2c(c1)CCN(CCS(=O)(=O)CC)C2	0.02 to 0.1 µM
CCNC(=O)c1noc(-c2cc(C(C)C)c(O)cc2O)c1-c1ccc2c(c1)CCN(CCCNC(C)=O)C2	0.02 to 0.1 µM
CCNC(=O)c1onc(-c2cc(C(C)C)c(O)cc2O)c1-c1ccc2c(c1)CCN(C(C)C)C2	< 0.02 µM
Cc1nnc(-c2noc(-c3cc(C(C)C)c(O)cc3O)c2-c2ccc3c(c2)CCN(C)C3)[nH]1	0.02 to 0.1 µM
CCNC(=O)c1noc(-c2cc(C(C)C)c(O)cc2O)c1-c1ccc2c(c1)CCN(CC(=O)N(C)C)C2	0.02 to 0.1 µM
CCNC(=O)c1nsc(-c2cc(C(C)C)c(O)cc2O)c1-c1ccc2c(c1)CCN(C)C2	> 0.1 µM
CCNC(=O)c1noc(-c2cc(C(C)C)c(O)cc2O)c1-c1ccc2c(n1)CCN(C)C2	0.02 to 0.1 µM
CC(C)c1cc(-c2noc(C(N)=O)c2-c2ccc3c(c2)CCN(C)C3)c(O)cc1O	< 0.02 µM

###

- measurementNotes: in vivo
- Parameters: species or system SD rats
- studyConditions: male, SD, rat, iv, 1 mg/kg, plasma concentration (nM)

chemSmiles	concentration at 24 h (nM)
CCNC(=O)c1onc(-c2cc(C(C)C)c(O)cc2O)c1-c1ccc2c(c1)CCNC2	3.72

###

Parameter: concentration at 24 h. Scope: all listed entries.
- measurementNotes: in vivo
- Parameters: species or system SD rats
- studyConditions: male, SD, rat, iv, 1 mg/kg, pulmonary concentration (nM)
assayReadout: concentration at 24 h (nM)

compound	valueMeasured
CCNC(=O)c1noc(-c2cc(C(C)C)c(O)cc2O)c1-c1ccc(CN2CCOCC2)cc1 [Luminespib]	35.9
CCNC(=O)c1onc(-c2cc(C(C)C)c(O)cc2O)c1-c1ccc2c(c1)CCNC2 [Example 67]	613

###

Parameter: IC50. Scope: all listed entries.
- studyTarget: HSP90α (Homo sapiens (Human), UniProt P07900)
- measurementNotes: Fluorescence polarization (FP) HSP90-alpha target binding assay
- studyConditions: fluorescence polarization; read-out: Target binding ability HSP90α FP IC50

compound	IC50
CCNC(=O)c1noc(-c2cc(C(C)C)c(O)cc2O)c1-c1ccc2c(c1)CCN(C(=O)CN(C)C)C2	20 to 100 nM
CC(C)c1cc(-c2onc(C(=O)NCCN(C)C)c2-c2ccc3c(c2)CCN(C)C3)c(O)cc1O	20 to 100 nM
CCNC(=O)c1noc(-c2cc(C(C)C)c(O)cc2O)c1-c1nc2c(n1C)CCN(CC(C)C)C2	20 to 100 nM
CCNC(=O)c1noc(-c2cc(C(C)C)c(O)cc2O)c1-c1ccc2c(c1)CCN(C)C2	< 20 nM
CCNC(=O)c1noc(-c2cc(C(C)C)c(O)cc2O)c1-c1ccc2c(c1)CCN(CCO)C2	< 20 nM
CCNC(=O)c1noc(-c2cc(C(C)C)c(O)cc2O)c1-c1cnc2c(c1)CN(C)CC2	20 to 100 nM
CCNC(=O)c1onc(-c2cc(C(C)C)c(O)cc2O)c1-c1ccc2c(c1)CCN(C)CC2	< 20 nM
CC(C)c1cc(-c2onc(C(=O)NCC(F)(F)F)c2-c2ccc3c(c2)CCN(C)C3)c(O)cc1O	20 to 100 nM
CCNC(=O)c1noc(-c2cc(C(C)C)c(O)cc2O)c1-c1ccc2c(c1)CCN(CCNC(C)=O)C2	20 to 100 nM
CCNC(=O)c1noc(-c2cc(CC(C)C)c(O)cc2O)c1-c1ccc2c(c1)CCN(C)C2	20 to 100 nM
CCNC(=O)c1noc(-c2cc(C(C)C)c(O)cc2O)c1-c1ccc2c(c1)CCN(CCC(=O)N(C)C)C2	20 to 100 nM
CCNC(=O)c1noc(-c2cc(C(C)C)c(O)cc2O)c1C1=CC2CN(C)CC2C1 (stereo not shown)	< 20 nM
CCNC(=O)c1onc(-c2cc(C(C)C)c(O)cc2O)c1-c1ccc2c(c1)CCN(CCO)C2	< 20 nM
CCNC(=O)c1noc(-c2cc(C3CC3)c(O)cc2O)c1-c1ccc2c(c1)CCN(C)C2	< 20 nM
CCNC(=O)c1noc(-c2cc(C(C)C)c(O)cc2O)c1-c1nc2c(s1)CCN(C)C2	20 to 100 nM
CCNC(=O)c1noc(-c2cc(C(C)C)c(O)cc2O)c1-c1ccc2c(c1)CCN(C(=O)CCN1CCOCC1)C2	20 to 100 nM

###

- studyTarget: HSP90α (Homo sapiens (Human))
- measurementNotes: Fluorescence polarization (FP) HSP90-alpha target binding assay
- studyConditions: fluorescence polarization; read-out: Target binding ability HSP90α FP IC50
Parameter: IC50. Scope: all listed entries.

compound	IC50
CCNC(=O)c1noc(-c2cc(C(C)C)c(O)cc2O)c1-c1ccc2c(c1)CCN(C(C)C)C2 [Example 51]	20 to 100 nM
CCNC(=O)c1onc(-c2cc(C(C)C)c(O)cc2O)c1-c1ccc2c(c1)CCN(C)C2 [Example 12]	< 20 nM
CNC(=O)c1onc(-c2cc(C(C)C)c(O)cc2O)c1-c1ccc2c(c1)CCN(C)C2 [Example 62]	< 20 nM

###

- studyTarget: HSP90α (Homo sapiens (Human))
- measurementNotes: Fluorescence polarization (FP) HSP90-alpha target binding assay
- studyConditions: fluorescence polarization; read-out: Target binding ability HSP90α FP IC50
Parameter: IC50. Scope: all listed entries.
assayReadout: IC50

compound	studyTarget	valueMeasured
CCNC(=O)c1noc(-c2cc(C(C)C)c(O)cc2O)c1-c1ccc2c(c1)CCN(CCCOC)C2 [Example 47]	HSP90α (Homo sapiens (Human))	20 to 100 nM
CCc1cnc(-c2noc(-c3cc(C(C)C)c(O)cc3O)c2-c2ccc3c(c2)CCN(CCO)C3)[nH]1 [Example 17]	HSP90α (Homo sapiens (Human))	20 to 100 nM
CC(C)NC(=O)c1noc(-c2cc(C(C)C)c(O)cc2O)c1-c1ccc2c(c1)CCN(C)C2 [Example 38]	HSP90α (Homo sapiens (Human))	20 to 100 nM
